Test system: db/db mice
procedure-summary: db/db mice model: serum glucose, triglycerides, cholesterol
Format: in vivo
reported-conditions: 10 mg/kg orally once a day for 5 days, serum 4 hours after final gavage
Quick reference for Triglycerides, percentage of variation relative to the control group among some compounds
readout: Triglycerides, percentage of variation relative to the control group (%)

>>> measured_result("Cc1cc(C)cc(S(=O)(=O)n2c(CCCCC(=O)O)cc3nc(Cl)ccc32)c1")
"−16"
>>> measured_result("O=C(O)CCCc1cc2nc(Cl)ccc2n1S(=O)(=O)c1ccc2ncsc2c1")
"−45"
>>> measured_result("O=C(O)CCCc1cc2nc(C(F)(F)F)ccc2n1S(=O)(=O)c1ccccc1")
"−65"
>>> measured_result("O=C(O)CCCc1cc2nc(Cl)ccc2n1S(=O)(=O)c1ccc(-c2ccncc2)cc1")
"−15"
>>> measured_result("O=C(O)CCc1cc2nc(Cl)ccc2n1S(=O)(=O)c1ccccc1")
"−32"
